# Subject Of Test: T1, Pex13, P80667
# T1 sequence (P80667 295-386, looked up): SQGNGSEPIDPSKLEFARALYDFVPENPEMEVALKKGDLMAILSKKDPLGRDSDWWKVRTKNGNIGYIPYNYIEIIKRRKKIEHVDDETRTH
# Method Notes: SPOT array
# Test Context: median of control spots 1341
Each entry below lists one item and its recorded SPOT intensity value.
Give your answer as a number; write no unit.

HKVLRPFLLRRLKKD
0

SPOT intensity for SRYRRPLTLLLLKPF is 16

SPOT intensity for KNRKNLPTIPIRLSG is 13

SPOT intensity for PPIPIVPSSPAPPLP is 0

Just for reference, paper PMC2756588 is where these values come from.
